normalized growth for assorted molecules
experiment: chemical genetic growth profiling, strain panel (AID 1159580);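 further: tested at 20 µM; growth read once vehicle control cultures reached saturation at 30 °C; 1 = growth at the plate median or of vehicle wells; lower values mean less growth of the strain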; conditions: S. cerevisiae deletion strains, growth OD, locus YIL125W, strain kgd1, active compounds read low
In all, about 5,500 compounds went through this assay and about 2,000 (36%) were called active. Roughly 18% stayed inconclusive and do not appear here. The list shows a part of the results.
Give your answer as a number; write no unit.

Known normalized growth results, listed for orientation:
INSERT INTO measurements (molecule, measurement_type, value) VALUES
  ('CCCCOc1ccc(C(=O)CCN2CCCCC2)cc1', 'normalized growth', 0.957),
  ('Cc1ccc(C(=O)C(C)CN2CCCCC2)cc1 (stereo unspecified)', 'normalized growth', 1.02),
  ('CCc1ccc(CCOc2ccc(CC3SC(=O)NC3=O)cc2)nc1 (stereo unspecified)', 'normalized growth', 0.988);

Task item: Which normalized growth value is on record for `CCOC(=O)/C=C(\C)OP(=O)(OC)OC` ?
Reply: 0.993

Task item: Find the recorded normalized growth belonging to `C=CC1=C(C(=O)O)N2C(=O)[C@@H](NC(=O)/C(=N/O)c3csc(N)n3)[C@H]2SC1` and report it.
Reply: 0.991

Task item: Sample CC1(C)S[C@@H]2[C@H](NC(=O)[C@H](NC(=O)N3CCNC3=O)c3ccccc3)C(=O)N2C1C(=O)O (stereo partly specified) — what was its normalized growth?
Reply: 1

Task item: Consider the molecule `C=CC(C)(C)c1c2c(c(O)c3c(=O)c4ccc(O)c(O)c4oc13)C=CC(C)(C)O2` and give its measured normalized growth.
Reply: 0.984

Task item: Item under review: C=C1CC[C@H](O)C/C1=C/C=C1\CCC[C@]2(C)C([C@H](C)/C=C/[C@H](C)C(C)C)CC[C@@H]12 (stereo partly specified) . Reported normalized growth?
Reply: 0.98

Task item: Please report the recorded normalized growth for `Oc1c(Cl)c(Cl)c(Cl)c(Cl)c1Cl` .
Reply: 0.463

Task item: Query: normalized growth; subject: `c1ccc(CC2=NCCN2)cc1`
Reply: 0.787

Task item: What does the data say about its normalized growth? Entry: `C[N+](C)(C)CC(=O)[O-]`
Reply: 0.988

* * *

assay: chemical genetic growth profiling, strain panel (AID 1159580); details: S. cerevisiae deletion strains, growth OD, locus YNL307C, strain MCK1, active compounds read low
The campaign covered roughly 5,500 compounds. About 2,000 (36%) were called active. About 18% were inconclusive and are not listed. This is one part of the list.
Quick list: normalized growth per entry.

// solved cases for normalized growth follow
INSERT INTO results (compound, measurement_type, value) VALUES
  ('CC1(C)C2CC[C@]3(C)C(C(=O)C=C4[C@@H]5C[C@@](C)(C(=O)O)CC[C@]5(C)CC[C@]43C)[C@@]2(C)CC[C@@H]1O (stereo partly specified)', 'normalized growth', '1.03 (inactive)'),
  ('CN1C2CC3C[C@H]1C(O3)C2O (stereo partly specified)', 'normalized growth', '1.05 (inactive)'),
  ('CC(=O)[C@H]1CCC2C3C[C@H](C)C4=CC(=O)CC[C@]4(C)C3[C@@H](O)C[C@@]21C (stereo partly specified)', 'normalized growth', '0.976 (inactive)'),
  ('CCC(C(N)=O)c1ccccc1 (stereo unspecified)', 'normalized growth', '1.01 (inactive)'),
  ('CC(C)=CCc1c(O)cc(C)oc1=O', 'normalized growth', '1 (inactive)'),
  ('C[C@@H]1O[C@@H](O[C@H]2[C@@H](Oc3cc(O)c4c(c3)O[C@H](c3ccc(O)cc3)CC4=O)O[C@H](CO)[C@@H](O)[C@@H]2O)[C@H](O)[C@H](O)[C@H]1O', 'normalized growth', '1 (inactive)');

Task item: Given the entry Cc1ccc(C(=O)C(C)CN2CCCCC2)cc1 (stereo unspecified) , report its measured normalized growth.
Reply: 1.03 (inactive)

Task item: Item `C=CC(C)(C)c1c2c(c(O)c3c(=O)c4ccc(O)c(O)c4oc13)C=CC(C)(C)O2` has what recorded normalized growth?
Reply: 0.799 (active)

Task item: What value of normalized growth has been recorded for this entry: `OC(CCN1CCCCC1)(c1ccccc1)c1ccccc1`
Reply: 1.02 (inactive)

Task item: Entry under review: `COc1ccc(C[C@H]2NC[C@H](O)[C@H]2OC(C)=O)cc1` . Reported normalized growth?
Reply: 0.496 (active)

* * *

experiment: chemical genetic growth profiling, strain panel (AID 1159580); details: S. cerevisiae deletion strains, growth OD, locus YGL253W, strain hxk2
About 2,000 (36%) of roughly 5,500 compounds were called active. Not shown: some 18% with an inconclusive outcome. No stated cut-off is given here; in the data, active means normalized growth mostly below about 0.91 (no sharp cut-off); inconclusive means no clear call, values can overlap the other calls; inactive means mostly above about 0.92. The list shows a part of the results.
Can you answer with just one of these options? active, inactive

Illustrative cases are given below, each with its answer.
INSERT INTO measurements (molecule, label_value) VALUES
  ('CCCCOc1ccc(CC(=O)NO)cc1', 'inactive'),
  ('OCC(O)Cc1ccc2c(c1)OCO2 (configuration not stated)', 'inactive');

Task item: Assay result, entry CN1CCc2cc3c(cc2C1O)OCO3 (configuration not stated) — outcome?
Reply: inactive

Task item: What did the test return for NCC1CCCCC1CC(=O)O (configuration not stated) ?
Reply: inactive

Task item: Fill in: this test's call for `C[C@@H](N)CO` is ___
Reply: inactive

* * *

Recorded measurements of normalized growth, one per entry
assay: chemical genetic growth profiling, strain panel (AID 1159580);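 further: tested at 20 µM; growth read once vehicle control cultures reached saturation at 30 °C; 1 = growth at the plate median or of vehicle wells; lower values mean less growth of the strain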; details: S. cerevisiae deletion strains, growth OD, locus YOR083W, strain WHI5, active compounds read low
Out of some 5,500 compounds screened, about 2,000 (36%) were called active. Roughly 18% stayed inconclusive and do not appear here. The list shows a part of the results.
Please respond with just the number, no unit label.

Below, 5 compounds whose answers are already recorded.
INSERT INTO assay_data (compound, measurement_type, value) VALUES
  ('COc1ccc(C2CC(=O)c3ccc(OC)cc3O2)cc1 (configuration not stated)', 'normalized growth', 0.865),
  ('COc1ccc2c(c1)C1(C)CCC(=O)CC1CC2 (configuration not stated)', 'normalized growth', 1.01),
  ('COc1ccc([C@@H]2CC(=O)c3c(O)cc(O)cc3O2)cc1O', 'normalized growth', 0.934),
  ('NCC1CCCCC1CC(=O)O (configuration not stated)', 'normalized growth', 1.01),
  ('C[CH2][Hg][S]c1ccccc1C(=O)O', 'normalized growth', 0.0608);

Task item: Please look up its normalized growth: COC1C(O)C(O)C(O)[C@@H](O)C1O (some centres not stated)
Reply: 0.964

Task item: Recorded normalized growth of `COc1cc(O)c(C(=O)c2ccccc2)cc1O` , please.
Reply: 0.933

Task item: Sample `COc1ccc(C(=O)c2ccccc2O)c(O)c1` — what was its normalized growth?
Reply: 0.884

* * *

test: chemical genetic growth profiling, strain panel (AID 1159580);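 further: tested at 20 µM; growth read once vehicle control cultures reached saturation at 30 °C; 1 = growth at the plate median or of vehicle wells; lower values mean less growth of the strain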; conditions: S. cerevisiae deletion strains, growth OD, locus YDR101C, strain arx1, active compounds read low
In all, about 5,500 compounds went through this assay and about 2,000 (36%) were called active. Another 18% or so got no clear call; they are omitted. The list shows a part of the results.
MEASUREMENT_TYPE: normalized growth
Would you mind answering with just the numeric figure?

Task item: For the compound shown here, OCC(O)Cc1ccc2c(c1)OCO2 (centres undefined) , give the reported normalized growth.
Reply: 0.989

Task item: Entry `Oc1ccc(O)cc1` has what normalized growth?
Reply: 1.03

Task item: May I ask what normalized growth has been recorded for `Oc1c(Cl)c(Cl)c(Cl)c(Cl)c1Cl` ?
Reply: 0.758

Task item: Fill blank: measured normalized growth of the compound CN1CCc2cc3c(cc2C1O)OCO3 (centres undefined) is ____.
Reply: 1.02

Task item: Query (compound): `NC(N)=NOCC[C@H](N)C(=O)O` ; field requested: normalized growth
Reply: 1.01

* * *

assay: chemical genetic growth profiling, strain panel (AID 1159580);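 further: tested at 20 µM; growth read once vehicle control cultures reached saturation at 30 °C; 1 = growth at the plate median or of vehicle wells; lower values mean less growth of the strain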; conditions: S. cerevisiae deletion strains, growth OD, locus YJL134W, strain LCB3, active compounds read low
The whole screen tested about 5,500 compounds, of which about 2,000 (36%) were called active. Inconclusive results (about 18%) are left out. The list shows a part of the results.
MEASUREMENT_TYPE: normalized growth
Provide a numeric answer; units are not to be included.

Use these answered entries as a reference point.
INSERT INTO assay_data (compound, value) VALUES
  ('O=C1C[C@@H](c2ccc(O)cc2)Oc2cc(O)cc(O)c21', 1.01),
  ('O=C(O)C1C(O)CCC2CN3CCc4c([nH]c5ccccc45)C3CC21 (stereo not given)', 1.02),
  ('CC(C)N(C(=O)CCl)c1ccccc1', 1.03),
  ('COc1cc2c(cc1OC)C(=O)C(CC1CCN(Cc3ccccc3)CC1)C2 (stereo not given)', 0.996),
  ('COc1cc(OC)c2c(c1)OC(c1ccccc1)CC2=O (stereo not given)', 0.985),
  ('CCc1cccc(C)c1N(C(=O)CCl)C(C)COC (stereo not given)', 1.02),
  ('CC1(C)S[C@@H]2[C@H](NC(=O)[C@H](NC(=O)N3CCNC3=O)c3ccccc3)C(=O)N2C1C(=O)O (stereo not given in full)', 0.993),
  ('COC(=O)C1[C@H]2C[C@H]3c4[nH]c5ccccc5c4CCN3C[C@@H]2CC[C@@H]1O (stereo not given in full)', 1.01),
  ('C[C@@H]1O[C@@H](O[C@H]2[C@@H](Oc3cc(O)c4c(c3)O[C@H](c3ccc(O)cc3)CC4=O)O[C@H](CO)[C@@H](O)[C@@H]2O)[C@H](O)[C@H](O)[C@H]1O', 0.985);

Let's switch to this compound now.
Task item: Give its normalized growth value. Item: `COc1c(O)cc2oc3cc(O)c(CC=C(C)C)c(O)c3c(=O)c2c1CC=C(C)C`
Reply: 0.833
